subjectOfTest: T1, full-length ERH-2^FL (C. elegans, UniProt Q20057 1-113)
T1 sequence (looked up): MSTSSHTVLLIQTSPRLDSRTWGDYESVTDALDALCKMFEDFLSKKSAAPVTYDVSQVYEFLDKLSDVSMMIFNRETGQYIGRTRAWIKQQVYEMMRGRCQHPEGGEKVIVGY
protocol: ITC
assayEndpoint: pKd
Please treat pKd as minus the base-10 logarithm of the molar concentration.

Prompt line: Supply reported pKd belonging to this binder: KYKTATNKRITLNERFGVLEKGYTIQ (peptide, UniProt Q18490 28-53, looked up) [TOST-1^pep]
Response line: 4.89

// data source = paper PMC8415317
